EXPERIMENTAL READOUT: melting point (°C)

CN(CCOc1ccc(CC2SC(=O)NC2=O)cc1)c1ncc(-c2ccccc2)o1 (centres unmarked) : 200
CN(CCOc1ccc(/C=C2\SC(=O)NC2=O)cc1)c1nc(-c2ccccc2)cs1 : 134
CN(CCOc1ccc(CC2SC(=O)NC2=O)cc1)c1nccs1 (centres unmarked) : 186
CN(CCCCOc1ccc(/C=C2\SC(=O)NC2=O)cc1)c1nc2ccccc2o1 : 168

A. CN(CCCCOc1ccc(CC2SC(=O)NC2=O)cc1)c1nc2ccccc2o1 (centres unmarked)
B. Cc1nc(N(C)CCOc2ccc(CC3SC(=O)NC3=O)cc2)sc1-c1ccccc1 (centres unmarked)
Q: For A and B , which recorded melting point is lower? Kindly give the label for the entry you pick.
Ans: A
(A: 112 °C, B: 174 °C)

----------
EXPERIMENTAL READOUT: melting point

Solved cases (2 shown):
Cc1sc(N(C)CCOc2ccc(CC3SC(=O)NC3=O)cc2)nc1-c1ccccc1 (centres unmarked) [Example 13] : 60 to 62 °C
CN(CCOc1ccc(CC2SC(=O)NC2=O)cc1)c1nc(-c2ccccc2)cs1 (centres unmarked) [Example 11] : 62 to 65 °C

Lab note: measured melting point of Cc1nc(N(C)CCOc2ccc(/C=C3\SC(=O)NC3=O)cc2)sc1C [Example 8] was 175 °C

// melting point lookup, compound = CN(CCOc1ccc(/C=C2\SC(=O)NC2=O)cc1)c1ncc(-c2ccccc2)o1 [Example 20] , result: 191 °C

Input CN(CCCOc1ccc(/C=C2\SC(=O)NC2=O)cc1)c1nc2ccccc2o1 [Example 29] . Output melting point: 202 to 204 °C

O=C1NC(=O)/C(=C/c2ccc(OCCNc3ncccn3)cc2)S1 [Example 24] yielded melting point of 234 °C

Form field melting point, entry O=C1NC(=O)C(Cc2ccc(OCCNc3nc4ccccc4o3)cc2)S1 (centres unmarked) [Example 35] : 202 to 203 °C

Form: compound = CN(CCOc1ccc(/C=C2\SC(=O)NC2=O)cc1)c1ccccn1 [Example 31] ; melting point = 177 to 179 °C
